System: SR leukemia
assay_explanation: NCI tumour cell line growth inhibition, 48 h
Form field: TGI (one value per entry).

Examples with their reported TGI follow.
CC12CC=CCC1CCC1C2CCC2(C)C(c3ccc(=O)oc3)CCC12O (stereo not drawn) | 0.123 µM
C[C@]12CC[C@H]3[C@@H](CCC4=C(Br)C(=O)C=C[C@@]43O)[C@@H]1CCC2=O | 58.8 µM
Clc1nc2c(C#Cc3ccccc3)ncnc2n1C1CCCCO1 (stereo not drawn) | 24.1 µM

Problem: Item COc1cc(C2c3cc4c(cc3[C@@H](N(C)C)[C@H]3COC(=O)C23)OCO4)cc(OC)c1O (stereo partly drawn) has what recorded TGI?
Solution: > 100 µM

Problem: Item C=C(CCOC)CCC1CCCCC(=C)[C@H]1O (stereo partly drawn) has what recorded TGI?
Solution: > 100 µM

Problem: Item COc1ccc2c(c1)C(=O)C1CCC(=O)N1C2c1ccc2c(c1)OCO2 (stereo not drawn) has what recorded TGI?
Solution: > 100 µM

Problem: Item CCn1c(=O)c2c3ccc(OC(C)=O)cc3[nH]c2c2ccc(OC(C)=O)cc21 has what recorded TGI?
Solution: > 100 µM

Problem: Item COc1cc2oc(=O)cc(C)c2c(OC)c1OC(C)=O has what recorded TGI?
Solution: > 100 µM

Problem: Item CCCCN(CCCC)CCc1c(C)cc(C)c(CCN(CCCC)CCCC)c1O has what recorded TGI?
Solution: 12.7 µM

Problem: Item Clc1ccc2ns[s+]c2c1 has what recorded TGI?
Solution: > 31.6 µM

Problem: Item COc1ccc(/C=C\c2cc(OC)c(OC)c(OC)c2)c(NS(=O)(=O)c2ccc(Cl)cc2)c1O has what recorded TGI?
Solution: 10.4 µM

Problem: Item Cc1nn(CNc2ccccc2C(F)(F)F)c(=S)n1/N=C/c1ccc(F)cc1 has what recorded TGI?
Solution: 51.6 µM
